Entries and their amyloid nucleation score values follow.
- METHOD: amyloid nucleation score (Sup35N fusion, yeast selection) (log enrichment); library NNK1; higher = more nucleation; inactive = no reads after selection;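 also: zero at mode of non-aggregating sequences after 7 days selection at 30°C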
Write the value as a bare number.

>>> experimental_value("VESFYVSIFGGGLRLKCSKS")
0.514
>>> experimental_value("FTCFAK")
1.14

Problem: Suppose we examine the substance KDIYKRFFWYYSKKVCGYGA ; what amyloid nucleation score value has been reported?
Result: -0.172

Problem: Suppose we examine the substance TLVFRYKSDGCQSLRVRLTF ; what amyloid nucleation score value has been reported?
Result: 0.084

Problem: Suppose we examine the substance WKKGRMMIKSQSGGLSQVWG ; what amyloid nucleation score value has been reported?
Result: 1.05

====

- METHOD: amyloid nucleation score (Sup35N fusion, yeast selection) (log enrichment); library NNK2; higher = more nucleation; inactive = no reads after selection
Classify on amyloid nucleation score using class A: < -0.3; class B: ≥ -0.3 and < 2; class C: ≥ 2

Below are worked cases with known answers.
>>> label_value("SLGHDSICWRWSLE")
"class C"
>>> label_value("LILALVPLLCWMVNGW")
"class A"

Problem: Assign a category based on measured amyloid nucleation score for GLSRFA and give only the class name.
Result: class A

Problem: Assign a category based on measured amyloid nucleation score for MSGWVAGLHLDVCGVDYAGG and give only the class name.
Result: class B

====

- METHOD: amyloid nucleation score (Sup35N fusion, yeast selection) (log enrichment); library NNK3; higher = more nucleation; inactive = no reads after selection
MEASUREMENT_TYPE: amyloid nucleation score

>>> experimental_value("RFYRCNYYRM")
2.17
>>> experimental_value("SWDHTVNKLGTPTVGSGSND")
"inactive"
>>> experimental_value("SWLFGLCYF")
2.06
>>> experimental_value("TLIFRLYLRRNCNAVFCFVV")
0.084
>>> experimental_value("HPGFTWY")
"inactive"
>>> experimental_value("KRISDRIFCFCLKHGVGLFG")
"inactive"
>>> experimental_value("GLVCWTG")
"inactive"
>>> experimental_value("NPRHGYLPTIIGLDHSIHDL")
"inactive"

Problem: Suppose we examine the substance MWVPYSAFRMDQEFGFYGIT ; what amyloid nucleation score value has been reported?
Result: 0.057

Problem: Suppose we examine the substance VIKVWLLCRRIVSVQFLAP ; what amyloid nucleation score value has been reported?
Result: inactive

Problem: Suppose we examine the substance FMYILWRVSKKLFIALMWFR ; what amyloid nucleation score value has been reported?
Result: inactive

Problem: Suppose we examine the substance RFNSWRSCIWLM ; what amyloid nucleation score value has been reported?
Result: inactive

====

- METHOD: amyloid nucleation score (Sup35N fusion, yeast selection) (log enrichment); library NNK1; higher = more nucleation; inactive = no reads after selection
Response key: Y means amyloid nucleation score >= 0.07; N means amyloid nucleation score < 0.07.

Below are worked cases with known answers.
>>> label_value("GGQRWELLFLTRGPGRRWQG")
"Y"
>>> label_value("LRCKMYSMWKTSYFTVMLGG")
"N"
>>> label_value("KYENGCTDTWGMTVASPLIK")
"N"
>>> label_value("GMDLQVMSHCASIHNNS")
"N"
>>> label_value("VRFTTIVYPSWFFSAW")
"Y"
>>> label_value("KTRHMREDGQCVYKHEMERM")
"Y"
>>> label_value("VVMQACNLNMCFMNGCRRGC")
"Y"
>>> label_value("VNIRVRD")
"N"

Problem: Reported amyloid nucleation score at or above 0.07? YSLMLFESVSSGFKCSLRFA
Result: N

Problem: Reported amyloid nucleation score at or above 0.07? LLYLCYIRCI
Result: Y

====

- METHOD: amyloid nucleation score (Sup35N fusion, yeast selection) (log enrichment); library NNK1; higher = more nucleation; inactive = no reads after selection
MEASUREMENT_TYPE: amyloid nucleation score

Below: 4 sequences and their reported amyloid nucleation score.
>>> experimental_value("FRLTLGIVVLLVGK")
"inactive"
>>> experimental_value("ISICYRIEKRE")
"inactive"
>>> experimental_value("PFVQRFCL")
0.486
>>> experimental_value("SQCELWGCSCTPYNRMFSGN")
"inactive"

Problem: Suppose we examine the sequence HREMMWQGKRV ; what amyloid nucleation score value has been reported?
Result: inactive

Problem: Suppose we examine the sequence TEDPYSGPILKEPVDLCWLE ; what amyloid nucleation score value has been reported?
Result: 0.494

====

- METHOD: amyloid nucleation score (Sup35N fusion, yeast selection) (log enrichment); library NNK3; higher = more nucleation; inactive = no reads after selection
MEASUREMENT_TYPE: amyloid nucleation score
Write the value as a bare number.

>>> experimental_value("GYICLGPPAVTVIYVRICRQ")
-0.495

Let us examine a further case.
Problem: Suppose we examine the substance TQRICRWLMVVWCDGRETHE ; what amyloid nucleation score value has been reported?
Result: 0.403

====

- METHOD: amyloid nucleation score (Sup35N fusion, yeast selection) (log enrichment); library NNK2; higher = more nucleation; inactive = no reads after selection
MEASUREMENT_TYPE: amyloid nucleation score

>>> experimental_value("YMLLRSYVFTKLLRLHCYRN")
"inactive"
>>> experimental_value("SWLSYSVRSM")
"inactive"
>>> experimental_value("SLFTTINARNATAEQCSMQT")
0.502

====

- METHOD: amyloid nucleation score (Sup35N fusion, yeast selection) (log enrichment); library NNK1; higher = more nucleation; inactive = no reads after selection
Response key: label 1 means amyloid nucleation score >= 0.9; label 0 means amyloid nucleation score < 0.9.

Below are worked cases with known answers.
>>> label_value("RGINSFLMSFALCWAHWRGV")
"label 0"
>>> label_value("CNRSLWAGPRLHPWTRMYVR")
"label 0"
>>> label_value("LSLRDLGSLALRGLKMNATR")
"label 0"
>>> label_value("DGCSRFRREGAEVYQRMGIG")
"label 1"
>>> label_value("RRPIGMACGDGRVYFWDHTA")
"label 0"

Problem: Reported amyloid nucleation score at or above 0.9? DVEIFTISWVKEVVYRDTWA
Result: label 1

Problem: Reported amyloid nucleation score at or above 0.9? SLVALINNCSVSTKMGSLPY
Result: label 0

Problem: Reported amyloid nucleation score at or above 0.9? LRITNAPKLVYVSAQEVNSQ
Result: label 1

Problem: Reported amyloid nucleation score at or above 0.9? NMFTFLSKRR
Result: label 0

Problem: Reported amyloid nucleation score at or above 0.9? CWMHFPYQVESDGQTNRAFD
Result: label 0

Problem: Reported amyloid nucleation score at or above 0.9? FLRFIRSVNFYVKEYAESLL
Result: label 0

Problem: Reported amyloid nucleation score at or above 0.9? MPKRSKHFVNWVVNA
Result: label 0

Problem: Reported amyloid nucleation score at or above 0.9? SAVGAIDANIYKSDGYSWG
Result: label 0

====

- METHOD: amyloid nucleation score (Sup35N fusion, yeast selection) (log enrichment); library NNK3; higher = more nucleation; inactive = no reads after selection
MEASUREMENT_TYPE: amyloid nucleation score

>>> experimental_value("GIGILEVWVSVRYGSWFKRI")
"inactive"
>>> experimental_value("VFSIKIYKPKSSFHDRFYSV")
"inactive"
>>> experimental_value("CLFSLLYPCGWINYSNSNMS")
0.437
>>> experimental_value("RSFHNHHWTVNY")
1.46
>>> experimental_value("HIVSRP")
"inactive"

Problem: Suppose we examine the substance FKKSLYVLSDFSVLYSMCSW ; what amyloid nucleation score value has been reported?
Result: inactive

Problem: Suppose we examine the substance RGIHEIGVMLKSVSQLE ; what amyloid nucleation score value has been reported?
Result: inactive

Problem: Suppose we examine the substance VYIRSFRSCTWRSLPMRIRY ; what amyloid nucleation score value has been reported?
Result: inactive

Problem: Suppose we examine the substance ASDGCSLRVAPVTQSPLWVS ; what amyloid nucleation score value has been reported?
Result: inactive

====

- METHOD: amyloid nucleation score (Sup35N fusion, yeast selection) (log enrichment); library NNK2; higher = more nucleation; inactive = no reads after selection
MEASUREMENT_TYPE: amyloid nucleation score

Below: 4 substances and their reported amyloid nucleation score.
>>> experimental_value("GKINITAFAWLKAFADRHWI")
0.705
>>> experimental_value("TWFRSVMYPDLSHFYMF")
"inactive"
>>> experimental_value("AIRVLCKEYSQSDRMNEWLN")
"inactive"
>>> experimental_value("HGLYCYPGYSDQCVTFVHGY")
"inactive"

Let us examine a further case.
Problem: Suppose we examine the substance RKVPVR ; what amyloid nucleation score value has been reported?
Result: inactive

====

- METHOD: amyloid nucleation score (Sup35N fusion, yeast selection) (log enrichment); library NNK1; higher = more nucleation; inactive = no reads after selection
MEASUREMENT_TYPE: amyloid nucleation score

>>> experimental_value("YESRCGWASRNFSLSENQNS")
"inactive"
>>> experimental_value("SGWIKIFG")
-0.293
>>> experimental_value("TEQGMWHSLAGGR")
"inactive"
>>> experimental_value("QLSLGHNFLCYVMSMRVREV")
"inactive"
>>> experimental_value("QLVTVADLLTKFPGILSWSG")
"inactive"

Problem: Suppose we examine the sequence AFFYYIEQDSYTVRSIMI ; what amyloid nucleation score value has been reported?
Result: -0.294

Problem: Suppose we examine the sequence LRFIRRYIESHITFVRKLLK ; what amyloid nucleation score value has been reported?
Result: inactive
